target: recombinant human IV PLA2 (Homo sapiens); test: biochemical
reported.endpoint: pIC50
Bear in mind: pIC50 is minus log10 of a mol/L concentration; give just that figure.

input: What does the record list as pIC50 for CCCCC/C=C\C/C=C\C/C=C\C/C=C\CCCC(=O)C(F)(F)F [AACOCF3, reference compound] ?
output: 5.24

###

Listed below: inhibition at 5 µM values for each entry.
molecular target: recombinant human IV PLA2 (Homo sapiens, UniProt P47712); assay: biochemical; details: read-out: inhibition of IV PLA2 enzyme activity
Sequence (P47712 whole entry): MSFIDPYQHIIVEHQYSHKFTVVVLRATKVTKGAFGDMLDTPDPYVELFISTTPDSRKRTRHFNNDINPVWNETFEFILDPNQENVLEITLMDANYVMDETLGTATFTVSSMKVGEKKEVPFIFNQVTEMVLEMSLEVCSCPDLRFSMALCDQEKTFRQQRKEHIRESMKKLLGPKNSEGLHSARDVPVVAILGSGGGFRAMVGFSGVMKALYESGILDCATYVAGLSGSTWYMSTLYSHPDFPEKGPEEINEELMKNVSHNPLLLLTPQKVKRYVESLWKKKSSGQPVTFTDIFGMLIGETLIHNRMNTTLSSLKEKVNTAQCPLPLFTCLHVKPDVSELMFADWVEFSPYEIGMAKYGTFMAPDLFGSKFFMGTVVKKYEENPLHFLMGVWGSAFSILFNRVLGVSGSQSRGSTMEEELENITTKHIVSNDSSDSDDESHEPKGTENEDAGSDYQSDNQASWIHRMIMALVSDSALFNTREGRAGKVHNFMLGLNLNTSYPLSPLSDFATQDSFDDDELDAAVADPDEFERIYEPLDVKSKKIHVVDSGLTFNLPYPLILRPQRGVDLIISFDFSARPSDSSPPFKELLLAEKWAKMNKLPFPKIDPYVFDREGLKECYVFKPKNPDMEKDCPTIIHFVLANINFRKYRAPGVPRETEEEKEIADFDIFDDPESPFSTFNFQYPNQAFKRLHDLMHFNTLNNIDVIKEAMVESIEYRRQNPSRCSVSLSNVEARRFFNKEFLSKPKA

Study these solved cases before continuing.
CC/C=C\C/C=C\C/C=C\C/C=C\C/C=C\CCCC(=O)C(F)(F)F [EPACOCF3] ... 75 to 80%
CC/C=C\C/C=C\C/C=C\C/C=C\C/C=C\CCSCC(=O)C(F)(F)F [EPASCOCF3] ... 75 to 80%
CCCCC/C=C\C/C=C\C/C=C\C/C=C\CCCC(=O)C(F)(F)F [AACOCF3, reference compound] ... 75 to 80%

Proceeding to the next molecule to report its inhibition at 5 µM.
input: // inhibition at 5 µM lookup, key: CC/C=C\C/C=C\C/C=C\C/C=C\C/C=C\C/C=C\CCC(=O)C(F)(F)F [DHACOCF3]
output: 30%
